- assay-target: T1, biotinylated CXCR4-virus like particle (Integral Molecular, Lot INT-1793B) (human, UniProt P61073 1-352, VLP biotinylated, sites not stated)
- T1 construct: also called hCXCR4 VLP; CXCR4 VLP
- T1 sequence (P61073 whole entry): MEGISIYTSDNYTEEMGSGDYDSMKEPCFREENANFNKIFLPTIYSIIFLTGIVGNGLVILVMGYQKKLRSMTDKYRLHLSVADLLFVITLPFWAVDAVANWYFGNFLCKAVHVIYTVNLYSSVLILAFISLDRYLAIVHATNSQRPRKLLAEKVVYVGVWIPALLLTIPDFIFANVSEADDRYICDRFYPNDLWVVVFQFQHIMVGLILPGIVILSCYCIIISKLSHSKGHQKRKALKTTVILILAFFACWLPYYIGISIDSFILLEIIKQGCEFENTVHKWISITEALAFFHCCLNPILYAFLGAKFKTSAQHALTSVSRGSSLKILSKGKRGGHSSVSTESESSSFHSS
- test-summary: SPR (Biacore 8K), biotinylated CXCR4 VLP captured on SA chip, Fab as analyte, 25 C, 1:1 model
parameter: pKd
Give bare numbers, as −log10 of the molar value.

Use the examples below as a reference point.
CL-83083 Fab fragment (Fab, V domains shown, Purified Fab fragment) VH: EVQLVESGGGLVQPGGSLKLSCAASGFTFSGSAMHWVRQASGKGLEWVGRIRSKANKYATAYAASVKGRFTISRDDSKNTAYVQMKSLKTEDTAVYYCTWELSNYDILTGFYYGMDVWGQGTTVTVSS VL: QAGLTQPPSVSKGLRQTATLTCTGNSNNVGNLGAAWLQQHQGHPPKLLSYRNNNRPSGISERFFASRSGNTASLTITGLQPEDEADYYCSAWDSSLSAWVFGGGTKLTVL : 8.73
CL-82558 Fab fragment (Fab, V domains shown, Purified Fab fragment) VH: QVQLQESGPGLVKPSQTLSLTCTVSGGSISSGGYYWSWIRQVPGKGLEWIGYISYSGNTFYSPSLKSRVTISVDTSENKFSLRLTSVTAADTAVYFCARDRRIPMLRGVKGYYYGLDVWGQGTTVTVSS VL: DIVMTQSPLSLPVIPGEPASISCRSSQSLLHRNGYKYLDWYLQKPGQSPQLLIYLGSNRASGVPARFSGSGSGTDFTLKISRVEAEDVGVYYCMQALQTPWTFGQGTKVEIK : 9.17
CL-82458 Fab fragment (Fab, V domains shown, Purified Fab fragment) VH: EVQLVESGGDLVQPGGSLRLSCAASGFTFYSYAMNWVRQAPGKGLKWVSGISGSGDITYYADSVKGRFTISRDNSKNTLYLQMHSLRPEDTAIYYCAKGQLERRYYKYYGMDVWGQGTTVTVSS VL: DIQMTQSPSSLSASVGDRVTITCRANQGIRNDLGWYQQKPGKAPKRLIYGASSLKSGVPSRFSGSGSGTEFTLTISSLQPEDFATYYCLQQNSYPLTFGGGTKVEIK : 8.90

Moving on to the next binder.
Assign pKd to the following record: CL-82658 Fab fragment (Fab, V domains shown, Purified Fab fragment) VH: QVQLVESGGGVVQPGRSLRLSCAASGFSFSSYGMHWVRQAPGKGLEWVAVISYDGSNKYYADSVKGRFTISRDNSKNTLYLQMNSLRGEDTAVYYCSKGSLTPRRGYYYSYGMDVWGQGTTVTVSS VL: DIQMTQSPSSLSASVGDRVTITCRASQGIRNDLSWYQQKPGKAPKRLIYAASSLQSGVPSRFSGSGSGTEFTLTISSLQPEDFATYYCLQHNGYPFTFGPGTKVDIK
9.16
